Test system: HS 578T breast
protocol: NCI-60 one-dose screen, 48 h
study-conditions: 10 µM unless noted
The panel holds about 83,000 compounds, 20% with a hit somewhere; the sample as a whole holds those more often. Activity calls are given as the source filed them. Rule for the calls: active = growth percent below 10; inactive = the rest.
Possible outcomes: yes (1) (active), no (0) (inactive)

{"compound": "COc1ccc(Nc2ccnc(NCCCNc3ccnc4cc(Cl)ccc34)n2)cc1", "class-assignment": "yes (1)"}
{"compound": "COc1cccc2c1C(=O)c1c(O)c3c(c(O)c1C2=O)C[C@@](O)(/C(C)=N/NC(=O)c1cccc([N+](=O)[O-])c1)C[C@@H]3OC1CC(N)C(O)C(C)O1 (stereo not given in full)", "class-assignment": "yes (1)"}
{"compound": "Cc1nc(N)[nH]c(=O)c1C", "class-assignment": "no (0)"}
{"compound": "OCCOc1c(Cl)cc(Cl)cc1Cl", "class-assignment": "no (0)"}
{"compound": "CC(C)c1nc(N(C)S(C)(=O)=O)nc(-c2ccc(F)cc2)c1/C=C/[C@@H](O)C[C@@H](O)CC(=O)O", "class-assignment": "no (0)"}

###

Tested on: MDA-MB-231 breast
protocol: NCI-60 one-dose screen, 48 h
study-conditions: 10 µM unless noted
The panel holds about 83,000 compounds, 20% with a hit somewhere; the sample as a whole holds those more often. Active and inactive are the calls of the source. The calls were made as follows: active = growth percent below 10; inactive = the rest.
Possible outcomes: yes for active, no for inactive

{"compound": "COC(=O)[C@]1(CCSC)N[C@H](c2cn(-c3ccccc3)nc2C)[C@@H]2C(=O)N(c3ccccc3)C(=O)[C@@H]21", "class-assignment": "no"}
{"compound": "NCCCc1nnc(CCC(=O)c2nc3ccccc3[nH]2)o1", "class-assignment": "no"}
{"compound": "COc1ccc(C(=O)/C=C/c2c(Cl)nc3c(c(C)nn3-c3ccccc3)c2-c2ccc(Br)cc2)cc1", "class-assignment": "no"}
{"compound": "COc1ccc2c(c1)nc(N)c1c3cc(OC)c(OC)cc3cn21", "class-assignment": "no"}
{"compound": "COc1ccc(/C=C/C(=O)Nc2cccnc2Nc2ccc(F)cc2)cc1", "class-assignment": "no"}
{"compound": "NC(=O)c1ccccc1NC(=O)c1ccccc1Cl", "class-assignment": "no"}
{"compound": "C[N+]1(CCc2ccccc2)CCC(CCC2CC[N+](C)(CCc3ccccc3)CC2)CC1 (stereo unspecified)", "class-assignment": "no"}
{"compound": "COc1cc(/C=C/c2nnc(-c3cc(-c4ccccc4)n[nH]3)o2)cc(OC)c1OC", "class-assignment": "no"}
{"compound": "O=C1Nc2ccccc2C12Nc1cc(Cl)ccc1S2 (stereo unspecified)", "class-assignment": "no"}
{"compound": "O=C(O)C(=O)O", "class-assignment": "no"}
{"compound": "O=C(O)c1ccc(NC(=O)c2cccc(Nc3ccnc(C(F)(F)F)c3)c2)cc1", "class-assignment": "no"}
{"compound": "O=C(C(Br)Br)C(Br)C(Br)c1ccccc1 (stereo unspecified)", "class-assignment": "no"}
{"compound": "CO[C@H]1CC(O[C@@H]2/C(C)=C/C[C@@H]3C[C@@H](C[C@]4(CC[C@H](C)[C@@H](C5CCCCC5)O4)O3)OC(=O)[C@@H]3C=C(C)/C(=N/O)[C@H]4OC/C(=C\\C=C\\[C@@H]2C)[C@]43O)O[C@@H](C)C1O (stereo partly specified)", "class-assignment": "yes"}
{"compound": "O=C(Nc1cccc([N+](=O)[O-])c1)c1cccc(C(=O)Nc2cccc([N+](=O)[O-])c2)c1", "class-assignment": "no"}
{"compound": "CC(=O)Oc1ccc(C23c4ccccc4C2(OC(C)=O)c2cc(OC(C)=O)ccc23)cc1 (stereo unspecified)", "class-assignment": "no"}
{"compound": "Cc1cc2cn3c4cccnc4[nH]c(=O)c3c2cc1C", "class-assignment": "no"}
{"compound": "O=C1CC(C(F)(F)F)=NN1C(=O)c1nn(-c2ccc(Cl)cc2)cc1O", "class-assignment": "no"}
{"compound": "CC(C)c1nc(N(C)S(C)(=O)=O)nc(-c2ccc(F)cc2)c1/C=C/[C@@H](O)C[C@@H](O)CC(=O)O", "class-assignment": "no"}
{"compound": "CCOC(=O)C1=C(COCCN)NC(C)=C(C(=O)OC)C1c1ccccc1Cl (stereo unspecified)", "class-assignment": "no"}
{"compound": "COc1ccc2c(c1)nc(N)c1c3ccccc3cn21", "class-assignment": "no"}
{"compound": "CN(C)c1ccc2[nH]c3c(C(N)=O)cc(=O)c(=O)c=3oc2c1", "class-assignment": "no"}
{"compound": "CCCCCCCC/C=C/CCCCCCCC1=NC(C)(C)CN1CCO", "class-assignment": "yes"}
{"compound": "Cc1cc(C(=O)O)c(C)cc1C(=O)O", "class-assignment": "no"}
{"compound": "O=C(Nc1cccc2ccccc12)c1cc2c(cc1Br)OCO2", "class-assignment": "no"}
{"compound": "CC(C)[C@H]1CC[C@H]2[C@@H](CC[C@H]3[C@](C)(CN)CCC[C@]23C)C1", "class-assignment": "no"}
{"compound": "Nc1nc(SCc2ccccc2Cl)c(-c2ccccc2)c(SCc2ccccc2Cl)n1", "class-assignment": "no"}
{"compound": "COc1cc2c(cc1OCCCCCn1c(-c3ccc(OCc4ccccc4)cc3)nc3cc(N4CCOCC4)ccc31)N=C[C@@H]1CCCN1C2=O", "class-assignment": "yes"}
{"compound": "COc1ccc(OC)c2c1[nH]c(=O)c1c3ccccc3cn21", "class-assignment": "yes"}
{"compound": "COc1cc2c(c(OC)c1OC)-c1ccc(NN(C(=O)c3ccccc3)C(=O)c3ccccc3)c(=O)cc1[C@@H](NC(C)=O)CC2 (tested in a mixture with another compound)", "class-assignment": "no"}
{"compound": "Cc1c(C)c(N2C(=O)C=CC2=O)c(C)c(C)c1N1C(=O)C=CC1=O", "class-assignment": "no"}
{"compound": "O=C(Nc1ccccc1Cl)c1cnc2ccc(C3CCNCC3)cn12", "class-assignment": "no"}
{"compound": "O=C1C[C@@H]2/C(=C(O)\\C=C\\c3ccccc3)C(=O)C=C[C@@H]2O1", "class-assignment": "yes"}
{"compound": "CCOC(=O)C(C(C)=O)c1nc2sc3cc(Cl)ccc3n2c(=N)c1C#N (stereo unspecified)", "class-assignment": "no"}
{"compound": "COc1ccc(-c2oc3cc(O)c(OC)c(O)c3c(=O)c2OC)cc1O", "class-assignment": "no"}
{"compound": "COc1ccc(/C=N\\Nc2ccc([N+](=O)[O-])cn2)cc1OC", "class-assignment": "yes"}
{"compound": "O=[N+]([O-])c1ccc(N/N=C/c2c(O)ccc3ccccc23)nc1", "class-assignment": "no"}
{"compound": "COc1ccc2[nH]cc(/C=C3/C(=O)Nc4ccc(Cl)cc43)c2c1", "class-assignment": "no"}
{"compound": "CC12CCC3C(CCC4CC(=O)/C(=C\\O)CC43C)C1CCC(=O)O2 (stereo unspecified)", "class-assignment": "no"}
{"compound": "O=C(NCCCO)c1cc(Cl)ccc1O", "class-assignment": "no"}
{"compound": "COc1ccc(OC)c(NC(=O)c2cc3oc4ccccc4c3cc2O)c1", "class-assignment": "no"}
{"compound": "COc1ccc(-c2c(-c3cc(OC)c(OC)c(OC)c3)noc2N)cc1", "class-assignment": "no"}

Where do these numbers come from? They come from PubChem BioAssay (NCI).
